These entries and their values trace back to paper PMC6309207.

# test target: FITC-labeled C-terminal peptide of HSP90a
# method description: fluorescence polarisation
assay metric: Kd (µM)
Lab book: enter the figure in µM, no units written.

Dear colleague, please send me the reported Kd for hAIPL1 1–316 lacking the proline-rich domain, His6-tagged (domain or fragment) MDAALLLNVEGVKKTILHGGTGELPNFITGSRVIFHFRTMKCDEERTVIDDSRQVGQPMHIIIGNMFKLEVWEILLTSMRVHEVAEFWCDTIHTGVYPILSRSLRQMAQGKDPTEWHVHTCGLANMFAYHTLGYEDLDELQKEPQPLVFVIELLQVDAPSDYQRETWNLSNHEKMKAVPVLHGEGNRLFKLGRYEEASSKYQEAIICLRNLQTKEKPWEVQWLKLEKMINTLILNYCQCLLKKEEYYEVLEHTSDILRHHPGIVKAYYVRARAHAEVWNEAEAKADLQKVLELEPSMQKAVRRELRLLENRMAEKQ when you can.
20.8
